Numbers sourced from patent US20100216886A1.

Assay: Solubility in various solvents at 25° C. and 50° C.
Format: physicochemical
Conditions: organic solvent or mixture; Isopropyl acetate (IPAc), 25° C.
metric: solubility (mg/mL)
Number in mg/mL, nothing else.

Recorded solubility for CC(C)(Cc1ccc(F)cc1)NC(=O)[C@H](CCC(=O)O)NC(=O)c1ccc(-c2ccccc2)cc1 , please?
76.1

====

Assay: Solubility in various solvents at 25° C. and 50° C.
Assay type: physicochemical
Conditions: Water, 25° C.
metric: solubility (µg/mL)
Reply with just the number (in µg/mL).

Which solubility reading was recorded for the compound CC(C)(Cc1ccc(F)cc1)NC(=O)[C@H](CCC(=O)O)NC(=O)c1ccc(-c2ccccc2)cc1 [Compound (I)] ?
1600

====

Assay: physchem
Settings: aqueous buffer, thermodynamic from solid, Solubility at pH<4 (below HPLC detection limit)
metric: solubility at 24 h

Look up solubility at 24 h: CC(C)(Cc1ccc(F)cc1)NC(=O)[C@H](CCC(=O)O)NC(=O)c1ccc(-c2ccccc2)cc1
< 0.011 µg/mL

====

Test: Oral bioavailability in rat
Details: in vivo, Tox suspension, 25 mg/kg, read-out: Oral bioavailability (F %)
metric: bioavailability (%)
// units = %; emit number, no label

Record request: bioavailability value, item CC(C)(Cc1ccc(F)cc1)NC(=O)[C@H](CCC(=O)O)NC(=O)c1ccc(-c2ccccc2)cc1 [Compound (I)]
29

====

Assay: physchem
Details: aqueous buffer, thermodynamic from solid, Solubility at pH<4
metric: solubility at 24 h

Form field: reported solubility at 24 h of CC(C)(Cc1ccc(F)cc1)NC(=O)[C@H](CCC(=O)O)NC(=O)c1ccc(-c2ccccc2)cc1
~4.5 µg/mL

====

Test: Oral bioavailability in rat
Settings: in vivo, 100 mg/kg, read-out: Oral bioavailability (F %)
metric: bioavailability

Which value of bioavailability has been reported for CC(C)(Cc1ccc(F)cc1)NC(=O)[C@H](CCC(=O)O)NC(=O)c1ccc(-c2ccccc2)cc1 in the records?
~100%

====

Test: In situ rat perfusion model, metoprolol as reference
Type: in vivo
Set-up: dose or concentration left out as unconfirmed
Conditions: in situ rat perfusion model; read-out: permeability
metric: Papp (×10⁻⁶ cm/s)
Answer with a number only, understood to be in ×10⁻⁶ cm/s.

Return reported Papp; argument: COCCc1ccc(OCC(O)CNC(C)C)cc1 (stereo not shown) [Metoprolol, reference compound]
1.45

====

Assay: Solubility in water and toxicology vehicle (animal formulation)
Assay type: physicochemical
Conditions: water, pH 5.5, water; read-out: solubility in water
metric: solubility

Which solubility value is on record for CC(C)(Cc1ccc(F)cc1)NC(=O)[C@H](CCC(=O)O)NC(=O)c1ccc(-c2ccccc2)cc1 [Compound (I)] ?
< 100 µg/mL

====

Assay: Solubility in various solvents at 25° C. and 50° C.
Assay type: physicochemical
Settings: organic solvent or mixture; Toluene, 50° C.
metric: solubility (mg/mL)
Write the value in mg/mL as a bare number.

Any idea what its solubility is? The compound is CC(C)(Cc1ccc(F)cc1)NC(=O)[C@H](CCC(=O)O)NC(=O)c1ccc(-c2ccccc2)cc1 [Compound (I)]
15.6

====

Test: physchem
Conditions: aqueous buffer, thermodynamic from solid, S0 (intrinsic solubility of the free acid)
metric: solubility at 24 h (µg/mL)
Please reply with the bare figure in µg/mL and do not write the unit itself.

# lookup: solubility at 24 h of CC(C)(Cc1ccc(F)cc1)NC(=O)[C@H](CCC(=O)O)NC(=O)c1ccc(-c2ccccc2)cc1
4.5

====

Test: Solubility in various solvents at 25° C. and 50° C.
Assay type: physicochemical
Settings: Water, 50° C.
metric: solubility (µg/mL)
The figure you give is taken to be in µg/mL; do not add the unit.

Please give the measured solubility for this compound: CC(C)(Cc1ccc(F)cc1)NC(=O)[C@H](CCC(=O)O)NC(=O)c1ccc(-c2ccccc2)cc1
1800

====

Test: First CACO-2 study, metoprolol as reference
Conditions: human, Caco-2, pH 7.4
metric: Papp B→A

// query Papp B→A value for entry CC(C)(Cc1ccc(F)cc1)NC(=O)[C@H](CCC(=O)O)NC(=O)c1ccc(-c2ccccc2)cc1
37.4 ×10⁻⁶ cm/s

====

Experiment: Solubility in various solvents at 25° C. and 50° C.
Format: physicochemical
Conditions: organic solvent or mixture; Acetonitrile, 50° C.
metric: solubility

# solubility lookup, item CC(C)(Cc1ccc(F)cc1)NC(=O)[C@H](CCC(=O)O)NC(=O)c1ccc(-c2ccccc2)cc1 [Compound (I)]
> 133 mg/mL

====

Experiment: Oral bioavailability in dog
Conditions: in vivo, Tox suspension, 25 mg/kg, read-out: Oral bioavailability (F %)
metric: bioavailability

What value of bioavailability has been recorded for this entry: CC(C)(Cc1ccc(F)cc1)NC(=O)[C@H](CCC(=O)O)NC(=O)c1ccc(-c2ccccc2)cc1
~100%

====

Experiment: First CACO-2 study, metoprolol as reference
Settings: human, Caco-2, pH 7.4, % Recovery, A → B, pH 7.4
Catalogue of recovery values
Note: unit % is implicit; provide only the numeric part.

compound	unit name	recovery
COCCc1ccc(OCC(O)CNC(C)C)cc1 (centres unmarked) [Metoprolol, reference compound]	%	109

Please report the recorded recovery for CC(C)(Cc1ccc(F)cc1)NC(=O)[C@H](CCC(=O)O)NC(=O)c1ccc(-c2ccccc2)cc1 [Compound (I)] .
100

====

Experiment: Oral bioavailability in dog
Settings: in vivo, capsule containing neat drug, read-out: Oral bioavailability (F %)
metric: bioavailability (%)
Express it in %; write the number only.

bioavailability lookup needed for CC(C)(Cc1ccc(F)cc1)NC(=O)[C@H](CCC(=O)O)NC(=O)c1ccc(-c2ccccc2)cc1 , thanks.
65

====

Experiment: Solubility in water and 2% Tw80 of samples used in toxicological formulation assessments
Format: physicochemical
Settings: 2% Tw80
metric: Solubility, 2% Tw80 (mg/mL)
Number only, in mg/mL; omit the unit.

Example cases with answers are listed next.
compound	Solubility, 2% Tw80 / mg/mL
CC(C)(Cc1ccc(F)cc1)NC(=O)[C@H](CCC(=O)O)NC(=O)c1ccc(-c2ccccc2)cc1 [G]	0.127
CC(C)(Cc1ccc(F)cc1)NC(=O)[C@H](CCC(=O)O)NC(=O)c1ccc(-c2ccccc2)cc1 [Sample D]	0.468
CC(C)(Cc1ccc(F)cc1)NC(=O)[C@H](CCC(=O)O)NC(=O)c1ccc(-c2ccccc2)cc1 [Sample F]	0.217

I have this compound here, CC(C)(Cc1ccc(F)cc1)NC(=O)[C@H](CCC(=O)O)NC(=O)c1ccc(-c2ccccc2)cc1 [Sample E] , and I need its recorded Solubility, 2% Tw80.
0.330

====

Test: Second CACO-2 study, propranolol as reference
Type: in vitro ADME
Conditions: human, Caco-2; B → A, apical pH 6, basolateral pH 7, without verapamil
metric: Papp B→A (×10⁻⁶ cm/s)
Report the figure in ×10⁻⁶ cm/s without appending any unit label.

// query Papp B→A value for entry CC(C)(Cc1ccc(F)cc1)NC(=O)[C@H](CCC(=O)O)NC(=O)c1ccc(-c2ccccc2)cc1 [Compound (I)]
18.5

====

Experiment: Solubility in various solvents at 25° C. and 50° C.
Format: physicochemical
Conditions: organic solvent or mixture; Isopropyl alcohol (IPA), 25° C.
metric: solubility

Dear colleague, I am looking for the recorded solubility of the following compound: CC(C)(Cc1ccc(F)cc1)NC(=O)[C@H](CCC(=O)O)NC(=O)c1ccc(-c2ccccc2)cc1
> 122 mg/mL

====

Experiment: Solubility in water and 2% Tw80 of samples used in toxicological formulation assessments
Format: physicochemical
Conditions: 2% Tw80
metric: pH of 2% Tw80 solubility sample
The answer should be written as a number, with no unit following it.

compound	pH of 2% Tw80 solubility sample
CC(C)(Cc1ccc(F)cc1)NC(=O)[C@H](CCC(=O)O)NC(=O)c1ccc(-c2ccccc2)cc1 [Sample F]	5.9
CC(C)(Cc1ccc(F)cc1)NC(=O)[C@H](CCC(=O)O)NC(=O)c1ccc(-c2ccccc2)cc1 [Sample D]	5.4
CC(C)(Cc1ccc(F)cc1)NC(=O)[C@H](CCC(=O)O)NC(=O)c1ccc(-c2ccccc2)cc1 [G]	5.9

Let's switch to this compound now.
# query: pH of 2% Tw80 solubility sample of entry CC(C)(Cc1ccc(F)cc1)NC(=O)[C@H](CCC(=O)O)NC(=O)c1ccc(-c2ccccc2)cc1 [Sample E]
5.6

====

Test: First CACO-2 study, metoprolol as reference
Settings: human, Caco-2, pH 7.4
# Papp A→B per record follows
Kindly answer with a numeric value in nm/s, unit omitted.

compound	unit name	recorded measurement
COCCc1ccc(OCC(O)CNC(C)C)cc1 (centres unmarked) [Metoprolol, reference compound]	nm/s	604

For CC(C)(Cc1ccc(F)cc1)NC(=O)[C@H](CCC(=O)O)NC(=O)c1ccc(-c2ccccc2)cc1 [Compound (I)] , what is its reported Papp A→B?
149

====

Assay: physchem
metric: pKa
Keep it simple and answer with nothing but the number.

Tell me the measured pKa of CC(C)(Cc1ccc(F)cc1)NC(=O)[C@H](CCC(=O)O)NC(=O)c1ccc(-c2ccccc2)cc1 , please.
5.3
